Consider the following molecules and their measured Ki readings.
test_protocol: Inhibition of AAC(6')-li (unknown origin)
All answers are understood in nM, so give the number only.

A selection of reference data follows.
| smiles_str | measurement_units | obs_value |
| --- | --- | --- |
| CC(C)(COP(=O)(O)OP(=O)(O)OC[C@H]1O[C@@H](n2cnc3c(N)ncnc32)[C@H](O)[C@@H]1OP(=O)(O)O)[C@@H](O)C(=O)NCCC(=O)NCCSCCC(=O)NC[C@H]1O[C@H](O[C@H]2[C@H](O)[C@@H](O)[C@H](N)C[C@@H]2N)[C@H](N)[C@@H](O)[C@@H]1O | nM | 43 |
| CC(C)(COP(=O)(O)OP(=O)(O)OC[C@H]1O[C@@H](n2cnc3c(N)ncnc32)[C@H](O)[C@@H]1OP(=O)(O)O)[C@@H](O)C(=O)NCCC(=O)NCCSCCCC(=O)NC[C@H]1O[C@H](O[C@H]2[C@H](O)[C@@H](O)[C@H](N)C[C@@H]2N)[C@H](N)[C@@H](O)[C@@H]1O | nM | 161 |

Please give the measured Ki for this molecule: CC(C)(COP(=O)(O)OP(=O)(O)OC[C@H]1O[C@@H](n2cnc3c(N)ncnc32)[C@H](O)[C@@H]1OP(=O)(O)O)[C@@H](O)C(=O)NCCC(=O)NCCSCCCCC(=O)NC[C@H]1O[C@H](O[C@H]2[C@H](O)[C@@H](O)[C@H](N)C[C@@H]2N)[C@H](N)[C@@H](O)[C@@H]1O
8000
